experiment: qHTS Screen of the MIPE 4.0 Collection Against Ewings Sarcoma (TC32) (AID 1259256); conditions: TC32 Ewing sarcoma viability, CellTiter-Glo, 48 h; series mostly up to 45.8 µM; also: nearly all actives have a fitted effect of over 45% in size
Inconclusive results are not listed. Active and inactive are the calls of the source. Calls follow the shape of the dose curve; as a rule, active = well fitted inhibition curve with a large enough effect; inconclusive = small, poorly fitted or top-dose-only effect; inactive = no such curve, though single readings can be large or run the other way.
Assign a class; possible classes are yes (1) = active, no (0) = inactive

Below, 5 molecules whose answers are already recorded.
>  <molecule>
C[C@@H](N)C1CCC(C(=O)Nc2ccncc2)CC1 (stereo partly drawn)

>  <class>
no (0)

$$$$
>  <molecule>
Cc1cc(O)c2c(c1)C(=O)c1cc(O)cc(O)c1C2=O

>  <class>
no (0)

$$$$
>  <molecule>
O=C(c1ccccc1)c1ccc2n1CCC2C(=O)O (stereo not drawn)

>  <class>
yes (1)

$$$$
>  <molecule>
Nc1ccn([C@@H]2O[C@H](CO)[C@@H](O)C2O)c(=O)n1 (stereo partly drawn)

>  <class>
no (0)

$$$$
>  <molecule>
CC(C)[C@H](N)C(=O)OCCOCn1cnc2c(=O)[nH]c(N)nc21

>  <class>
no (0)

$$$$

Fill in: this test's call for CCN(CCO)CCCC(C)Nc1ccnc2cc(Cl)ccc12 (stereo not drawn) is ___ yes (1)

Would you kindly repeat that for `CNC[C@@H](O)[C@@H](O)[C@H](O)[C@H](O)CO` ? no (0)

Would you kindly repeat that for Cc1nccn1CC1CCc2c(c3ccccc3n2C)C1=O (stereo not drawn) ? yes (1)
